Tested on: human IgG
Format: binding
measurement parameters: peptide on Toyopearl AF-amino-650M, 30 min, room temperature
Assign fulfilled to entries whose % Binding (mg IgG bound by variant/mg IgG bound by original sequence × 100%) meets or exceeds 90%; assign not fulfilled to the rest.

[
  {
    "substance": "WQRHGL",
    "cat": "fulfilled"
  },
  {
    "substance": "GWRGWQ",
    "cat": "not fulfilled"
  },
  {
    "substance": "MWRGWN",
    "cat": "not fulfilled"
  },
  {
    "substance": "WQRHGI",
    "cat": "fulfilled"
  },
  {
    "substance": "MFRGWQ",
    "cat": "not fulfilled"
  },
  {
    "substance": "MWRAWQ",
    "cat": "fulfilled"
  },
  {
    "substance": "WQRHGV",
    "cat": "fulfilled"
  },
  {
    "substance": "WQRHAI",
    "cat": "fulfilled"
  },
  {
    "substance": "MWRGGQ",
    "cat": "not fulfilled"
  },
  {
    "substance": "WQRAGI",
    "cat": "not fulfilled"
  },
  {
    "substance": "WNRHGI",
    "cat": "not fulfilled"
  },
  {
    "substance": "FQRHGI",
    "cat": "not fulfilled"
  }
]
